Measured MFI (A488), IgG only values are reported for all entries that follow.
target.entity: T1, human ICOS (human, UniProt Q9Y6W8 21-199)
T1 construct: The cell that carries it is named under assay; also called huICOS; CD278
T1 sequence: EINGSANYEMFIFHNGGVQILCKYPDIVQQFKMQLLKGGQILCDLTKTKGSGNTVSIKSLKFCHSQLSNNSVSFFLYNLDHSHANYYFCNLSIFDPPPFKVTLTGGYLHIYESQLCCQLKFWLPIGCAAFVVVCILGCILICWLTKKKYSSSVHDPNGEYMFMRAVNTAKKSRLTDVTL
assay.details: flow cytometry, ICOS+ CHO cells, 120 nM anti-ICOS IgG, no ICOSL
Numbers only here, please. The scale is MFI.

Answered examples (3):
Molecule 20 (rbIgG of 1143) (antibody, V domains shown, Rabbit IgG format; also called ICOS (1143); clone 1143) VH: QSLEESGGDLVKPGASLTLTCKASGFDFSSAYDMCWVRQAPGKGLEWIGCVYYGDGITYYATWAKGRFTISKTSSTTVPLQMTSLTAADTATYFCARGAFLGSSYYLSLWGQGTLVTVSS VL: AIDMTQTPASVEAAVGGTVTINCQASENIYNWLAWYQQKPGQPPKLLIYDASKLASGVPSRFSASGSGTQFTLTISAVECADAATYYCQQAYTYGNIDNAFGGGTEVVVSG
6320
Molecule 14 (muIgG of 009) (antibody, V domains shown, Mouse IgG purified from hybridoma; also called ICOS (009); clone 009) VH: EVRLDETGGGVVQPGRPMELSCVASGFTFSDYWMNWVRQSPEKGLEWVAQIRNKPYNYETYYSDSVKGRFTISRDDSKSRVYLQMNNLRAEDMGIYYCTWPRLRSSDWHFDVWGAGTTVTVSS VL: AIQMTQSPSSLSASLGGEVTITCKASQDINKNIAWYQHKPGRGPRLLIWYTSTLQTGIPSRFSGSGSGRDYSFTISNLEPEDFATYYCLQFDNLYTFGSGTKLEIR
7190
Molecule 8 (rbIgG of 1167) (antibody, V domains shown, Rabbit IgG format, from transgenic rabbit; also called ICOS (1167); clone 1167) VH: EVRLLESGGGLVQPGGSLRLSCAASGFTFNTYAVHWVRQAPGKGLEWVSGIGGSGVRTYYADSVKGRLTISRDNSKNTLYLQMNSLRAEDTAIYFCAKDIYVADFTGYAFDIWGQGTMVTVSS VL: DIQMTQSPSSVSASVGDRVTITCRASQGINNFLAWYQQKPGKAPKLLIYDASSLQSGVPSRFAGSGSGTDFTLTISSLQPEDFATYYCQQYNFYPLTFGGGTMVEIKR
7800

// below: MFI (A488), IgG only requested for another binder
Exam item: Give the measured MFI (A488), IgG only of Molecule 18 (rbIgG of 1138) (antibody, V domains shown, Rabbit IgG format; also called ICOS (1138); clone 1138) VH: QSLEESGGDLVKPGASLTLTCTASGFDLSSYYYMCWVRQAPGKGLEWIACIYADIYGGTTHYASWAKGRFTISKTSSTTVTLQMTSLTAADTATYFCAREDGSRYGGSGYYNLWGPGTLVTVSS VL: ALVMTQTPSSVSAAVGGTVTINCQASQNIYSNLAWYQQKPGQPPKLLIYAASYLTSGVSSRFKGSGAGTQFTLTISGVECADAATYYCQQGHTTDNIDNAFGGGTEVVVKG .
Marked response: 6320

Values were extracted from patent US20220098305A1.
